Can you tell me polymerase ribozyme fitness (log ratio) for the items I'm about to list?
B1: TPR 5TU (parent)
chain: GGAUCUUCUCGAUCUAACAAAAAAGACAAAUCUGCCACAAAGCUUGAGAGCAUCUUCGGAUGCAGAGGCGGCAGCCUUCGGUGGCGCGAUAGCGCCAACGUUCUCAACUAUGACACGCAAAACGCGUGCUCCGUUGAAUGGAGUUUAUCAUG

- Variants of: B1
- PROCEDURE TEXT: polymerase ribozyme fitness, log enrichment relative to wild type (log ratio); higher = more active; in vitro selection for triplet polymerase activity
Variants at the floor of the assay were thinned out.
Give bare numbers.

[[record]]
mutation_key = "A22U C87U"
recorded_result = 0.455

[[record]]
mutation_key = "U13G G136A U144C"
recorded_result = -2.04

[[record]]
mutation_key = "A41C C57G"
recorded_result = -1.09

[[record]]
mutation_key = "C14G C18U"
recorded_result = -1.18

[[record]]
mutation_key = "A52G U101G"
recorded_result = -0.16


Fill in polymerase ribozyme fitness (log ratio) for each of the 5 variants listed.
1. G48C C85U G94U C96U U144C
2. A17U C87U G94C
3. A12U C54U G59C A60G U144G
4. A37U U56C C69U
5. C93G U101C

1. -3.25
2. -3.01
3. -0.245
4. -2.76
5. -3.2
